Species on record: Rattus norvegicus
Assay Notes: DrugMatrix - Regimen: Daily Repeat
Assay type: toxicity, organism-based, Sprague-Dawley
Design: regimen Daily Repeat, gender Male, age 6-8 weeks
Test Context: in vivo, po, 0 mg/kg, 72 h, tissue Plasma, route oral GAVAGE, dose level Control, time 3 day, vehicle 100 % WATER
Observable: GLUCOSE (mg/dL)
Provide only the numeric value, understood in mg/dL.

CCN(CC)CCNC(=O)c1cc(S(C)(=O)=O)ccc1OC [TIAPRIDE] ... 163.5
CC(C)(C)CC(C)(C)c1ccc(OCCOCC[N+](C)(C)Cc2ccccc2)cc1.[Cl-] [BENZETHONIUM CHLORIDE] ... 168.5
NNc1nncc2ccccc12 [HYDRALAZINE] ... 168.5

### Prompt Query: GLUCOSE; subject: Cc1ccc(NC(=O)c2ccc(CN3CCN(C)CC3)cc2)cc1Nc1nccc(-c2cccnc2)n1
### Response 163.5

###

Species: Rattus norvegicus
Assay Notes: DrugMatrix - Regimen: Daily Repeat
Type: toxicity, organism-based, Sprague-Dawley
Set-up: regimen Daily Repeat, gender Male, age 6-8 weeks
Test Context: in vivo, po, 0 mg/kg, 72 h, tissue Plasma, route oral GAVAGE, dose level Control, time 3 day, vehicle .5 % CMC
In this section, each of the molecules is paired with its reported GLUCOSE.
Provide only the numeric value, understood in mg/dL.

Recorded results for 8 molecules are shown here.
Clc1ccccc1CN1CCc2sccc2C1 [TICLOPIDINE] ... 192.67
CN/C(=N/CCSCc1nc[nH]c1C)NC#N [CIMETIDINE] ... 171.5
C[C@H]1O[C@@H](n2cc(F)c(=O)[nH]c2=O)[C@H](O)[C@@H]1O [DOXIFLURIDINE] ... 171.5
CCN(CC)CCOc1ccc(/C(=C(/Cl)c2ccccc2)c2ccccc2)cc1 [ENCLOMIPHENE] ... 171.33
CN(C/C=C/C#CC(C)(C)C)Cc1cccc2ccccc12 [TERBINAFINE] ... 172.5
O=C1C(CC[S+]([O-])c2ccccc2)C(=O)N(c2ccccc2)N1c1ccccc1 (centres undefined) [SULFINPYRAZONE] ... 151.67
Cn1c(=O)c2c(ncn2CC(O)CO)n(C)c1=O (centres undefined) [DYPHYLLINE] ... 160.67
COC1=C(OC)C(=O)C(CCCCCCCCCCO)=C(C)C1=O [IDEBENONE] ... 171.5

With those in mind, consider the next molecule.
### Prompt Query: GLUCOSE; subject: O=C1Nc2ccc(Cl)cc2C(c2ccccc2Cl)=NC1O (centres undefined) [LORAZEPAM]
### Response 151.67

###

In this section, each of the molecules is paired with its reported HEMATOCRIT.
Species on record: Rattus norvegicus
Assay Notes: DrugMatrix - Regimen: Daily Repeat
Format: toxicity, organism-based, Sprague-Dawley
Set-up: regimen Daily Repeat, gender Male, age 6-8 weeks
Test Context: in vivo, po, 0 mg/kg, 120 h, tissue Blood, route oral GAVAGE, dose level Control, time 5 day, vehicle .5 % CMC
Provide only the numeric value, understood in %.

### Prompt Query: HEMATOCRIT; subject: O=C1CN=C(c2ccccc2Cl)c2cc([N+](=O)[O-])ccc2N1
### Response 33.8

###

Organism: Rattus norvegicus
Assay Notes: DrugMatrix - Regimen: Daily Repeat
Format: toxicity, organism-based, Sprague-Dawley
Set-up: regimen Daily Repeat, gender Male, age 6-8 weeks
Test Context: in vivo, po, 0 mg/kg, 72 h, tissue Blood, route oral GAVAGE, dose level Control, time 3 day, vehicle .5 % CMC
Observable: HEMATOCRIT (%)
Provide only the numeric value, understood in %.

### Prompt Query: HEMATOCRIT; subject: CN/C(=N/CCSCc1nc[nH]c1C)NC#N
### Response 35.45

### Prompt And for CCN(CC)CCOc1ccc(/C(=C(/Cl)c2ccccc2)c2ccccc2)cc1 ?
### Response 36.52

### Prompt And for COc1ccc(C2C(=O)c3ccccc3C2=O)cc1 ?
### Response 36.94

### Prompt And for CN(C)[C@@H]1C(O)=C(C(N)=O)C(=O)[C@@]2(O)C(O)=C3C(=O)c4c(O)ccc(Cl)c4[C@@](C)(O)[C@H]3C[C@@H]12 ?
### Response 34.32
